Assay: AUC(0 to 24 hrs) in human at 250 mg, po administered for 8 days by LC-MS/MS analysis
Assay type: ADME, organism-based
Conditions: in vivo, time 8 day
observation type: AUC at 192 h (ng·h/mL)
Numbers only, in ng·h/mL.

Fill blank: measured AUC at 192 h of the compound CC#CC(=O)N1CCC[C@H]1c1nc(-c2ccc(C(=O)Nc3ccccn3)cc2)c2c(N)nccn12 [ACALABRUTINIB] is ____.
2310

====

Assay: AUC(0 to 6 hrs) in human at 250 mg, po administered for 8 days by LC-MS/MS analysis
Format: ADME, organism-based
Conditions: in vivo, time 8 day
observation type: AUC at 192 h
Could you write the number and then its unit?

Data request, read-out AUC at 192 h, for CC#CC(=O)N1CCC[C@H]1c1nc(-c2ccc(C(=O)Nc3ccccn3)cc2)c2c(N)nccn12
1990 ng·h/mL

====

Assay: Apparent oral clearance in human at 100 mg, po administered for 8 days by LC-MS/MS analysis
Type: ADME, organism-based
Conditions: in vivo, time 8 day
observation type: CL/F
Answer format: value, then unit.

For the molecule CC#CC(=O)N1CCC[C@H]1c1nc(-c2ccc(C(=O)Nc3ccccn3)cc2)c2c(N)nccn12 [ACALABRUTINIB] , what CL/F is on record?
3000 mL/min

====

Assay: AUC(0 to infinity) in human at 100 mg, po administered for 8 days by LC-MS/MS analysis
Format: ADME, organism-based
Conditions: in vivo, time 8 day
observation type: AUC(0-inf) (µg·h/mL)
One number for each entry, in µg·h/mL.

Quick one: AUC(0-inf) of CC#CC(=O)N1CCC[C@H]1c1nc(-c2ccc(C(=O)Nc3ccccn3)cc2)c2c(N)nccn12 [ACALABRUTINIB] ?
0.603

====

Assay: Apparent volume of distribution during terminal phase in human at 175 mg, po administered for 8 days by LC-MS/MS analysis
Type: ADME, organism-based
Conditions: in vivo, time 8 day, read-out: Vz/F
observation type: Vd/F (L)
Answers are plain numbers, in L.

Given the entry CC#CC(=O)N1CCC[C@H]1c1nc(-c2ccc(C(=O)Nc3ccccn3)cc2)c2c(N)nccn12 , report its measured Vd/F.
317

====

Assay: Terminal elimination half life in human at 100 mg, po administered for 8 days by LC-MS/MS analysis
Assay type: ADME, organism-based
Details: in vivo, time 8 day, read-out: LambdaZ (converted)
observation type: k el at 192 h (s⁻¹)
Give bare numbers, in s⁻¹.

Param item = CC#CC(=O)N1CCC[C@H]1c1nc(-c2ccc(C(=O)Nc3ccccn3)cc2)c2c(N)nccn12 ; retrieve measured k el at 192 h.
0.00017

====

Assay: AUC(0 to 12 hrs) in human at 400 mg, po administered for 8 days by LC-MS/MS analysis
Assay type: ADME, organism-based
Details: in vivo, time 8 day
observation type: AUC at 192 h (ng·h/mL)
Answers are plain numbers, in ng·h/mL.

Would you kindly share the measured AUC at 192 h for CC#CC(=O)N1CCC[C@H]1c1nc(-c2ccc(C(=O)Nc3ccccn3)cc2)c2c(N)nccn12 ?
1850

====

Test: AUC(0 to 6 hrs) in human at 175 mg, po administered for 8 days by LC-MS/MS analysis
Format: ADME, organism-based
Details: in vivo, time 8 day
observation type: AUC at 192 h
Please answer using a numeric value trailed by its unit.

Field request: AUC at 192 h | item: CC#CC(=O)N1CCC[C@H]1c1nc(-c2ccc(C(=O)Nc3ccccn3)cc2)c2c(N)nccn12
1140 ng·h/mL
